- ASSAY NOTES: Lipid nanoparticle size and polydispersity by dynamic light scattering
- Assay type: physicochemical
- CONDITION PARAMETERS: LNP of lipid/DSPC/cholesterol/PEG-lipid 50:10:38.5:1.5 encapsulating hEPO mRNA
Param threshold (0.1) applies to polydispersity; output True when value >= threshold, False when value < threshold.

Here are 5 compounds together with their reported answers.
CCCCCCCCC(CCCCCC)CNC(=O)CCCCCN(C)CCN(CCO)CCCCC(COC(=O)CCCCCCC)COC(=O)CCCCCCC (stereo not drawn) [Compound 158] : False
CCCCCCCCC(CCCCCC)CNC(=O)CCCCCN(CCCCN(CCO)CCCCC(COC(=O)CCCCCCC)COC(=O)CCCCCCC)C1CCCC1 (stereo not drawn) [Compound 196] : True
CCCCCCCCC(CCCCCC)COC(=O)CCCCCN(CCCCN(CCO)CCCCC(COC(=O)CCCCCCC)COC(=O)CCCCCCC)C1CCCC1 (stereo not drawn) [Compound 191] : True
CCCCCCCC(=O)OCC(CCCCN(CC=C(C)C)CCCCN(CCO)CCCCC(COC(=O)CCCCCCC)COC(=O)CCCCCCC)COC(=O)CCCCCCC [Compound 203] : True
CCCCCCCCC(CCCCCCCC)COC(=O)CCOCCN(CCO)CCN(CCOCCC(=O)OCC(CCCCCCCC)CCCCCCCC)C1CCC1 [Compound 112] : False

Okay, now this compound:
stdin: Dear colleague, could you confirm whether CCCCCCCCC(CCCCCC)COC(=O)CCCCCN(CC=C(C)C)CCN(CCO)CCCCC1COC(C(CCCCCC)CCCCCCCC)OC1 (stereo not drawn) [Compound 151] has polydispersity at or above 0.1?
stdout: False

Cited source for all entries: patent US20230348362A1
